The values you see were collected from the supplement of paper PMC10219994.

B1: library; a variant is named by its letters at N, in order (parent)
chain: GAGACCGCAACTGAAAAGTTGTGGNNNNNATAGTGAGTCGCTGCCTGCAAAGACACAACT

Variants of: B1
Test: ligation selection enrichment (abundance after / before one-round selection) (fold); higher = more template-directed ligation activity
Details: with T7Psub CACGGAUGCUAAUACGACUCACUAUA; MgCl2 25 mM; 42 °C; 4 h; pH 8.5
Entries get a class label from measured ligation selection enrichment. See ranges: LOW: < 0.2; MID: ≥ 0.2 and < 0.4; HIGH: ≥ 0.4

INSERT INTO results (mutant_name, class) VALUES
  ('ATGTT', 'LOW'),
  ('TTCAG', 'MID'),
  ('GATTG', 'HIGH'),
  ('ATTGA', 'HIGH'),
  ('GGGCG', 'HIGH'),
  ('GTGAT', 'HIGH'),
  ('GCCAG', 'MID'),
  ('GCAGA', 'MID'),
  ('CTTAA', 'MID'),
  ('TATGA', 'HIGH'),
  ('GGTGC', 'MID'),
  ('ACGGC', 'LOW'),
  ('GGCGG', 'MID'),
  ('CGAGA', 'MID'),
  ('GAACG', 'HIGH'),
  ('GCGTG', 'MID'),
  ('GCAAA', 'MID'),
  ('GTCGT', 'MID'),
  ('GAAGG', 'HIGH'),
  ('ACTTA', 'LOW'),
  ('GTGTA', 'MID'),
  ('GTCGA', 'HIGH'),
  ('GGTTT', 'HIGH'),
  ('TCTAC', 'LOW'),
  ('GTGCG', 'HIGH'),
  ('TAACC', 'LOW'),
  ('CCGAT', 'HIGH'),
  ('GCCTG', 'HIGH'),
  ('GGTGT', 'LOW'),
  ('TGTAG', 'MID'),
  ('GTATA', 'MID'),
  ('TACTG', 'HIGH'),
  ('AGACC', 'LOW'),
  ('CCATT', 'MID'),
  ('AAAGG', 'HIGH'),
  ('ATCCA', 'LOW'),
  ('GTGTC', 'LOW'),
  ('ACGGG', 'LOW');
